Test system: SNB-19 CNS
Assay: NCI tumour cell line growth inhibition, 48 h
Recorded TGI by entry
endpoint-label: TGI

compound="CC1Cc2c(N)nc(NN)nc2NC1=O (centres undefined)" recorded_result="> 100 µM"
compound=FC(F)(F)c1cccc(COCCN2CCN(Cc3cccc(C(F)(F)F)c3)CC2)c1 recorded_result="29.4 µM"
compound="NC(CCl)=NC1CN2CCC1CC2 (centres undefined)" recorded_result="> 100 µM"
compound=CC1(C)OC[C@@H]([C@@]2(CO[Si](C)(C)C(C)(C)C)CC=CC(=O)O2)O1 recorded_result="68.9 µM"

----------
Tested on: HCC-2998 colon
Assay: NCI tumour cell line growth inhibition, 48 h
endpoint-label: TGI

compound=CN1c2ccccc2C(=O)NC12CCN(Cc1ccccc1)CC2 endpoint_label=TGI recorded_result="> 100 µM"
compound=CC(C)=CC(=O)Oc1ccc([N+](=O)[O-])cc1 endpoint_label=TGI recorded_result="> 100 µM"
compound=COc1cc(C(=O)O[C@H](C(=O)NCCNC(=O)[C@@H](OC(=O)c2cc(OC)cc3c(C)cccc23)[C@]2(C)CO2)[C@]2(C)CO2)c2cccc(C)c2c1 endpoint_label=TGI recorded_result="2.49 µM"
compound="c1nncn1C12C3C4C5C3C1C5C42 (stereo not drawn)" endpoint_label=TGI recorded_result="> 100 µM"
compound=OCc1c2c(cc3c1CC1(C3)Cc3cc4c(c(CO)c3C1)CCC4)CCC2 endpoint_label=TGI recorded_result="35 µM"
compound=NNC(=O)Cc1cccnc1 endpoint_label=TGI recorded_result="> 100 µM"
compound=CCN(CC)c1ccc(/C=c2\nc(-c3ccccc3)n3c2nc2ccccc23)cc1 endpoint_label=TGI recorded_result="23.3 µM"
compound=Fc1ccc(Oc2nccc(-c3c(-c4ccc(F)cc4)ncn3C3CCNCC3)n2)cc1 endpoint_label=TGI recorded_result="> 25 µM"
compound=CC(=O)Nc1nc(SCc2ccccc2)c2ncn(C(C)=O)c2n1 endpoint_label=TGI recorded_result="> 100 µM"
compound=Cc1ccc(C(=O)Cc2nc3ncccc3[nH]c2=O)cc1 endpoint_label=TGI recorded_result="> 100 µM"
compound="COc1ccc2c(c1)C1Oc3ccccc3CC1(O)CO2 (stereo not drawn)" endpoint_label=TGI recorded_result="> 100 µM"
compound=COc1ccc(OC)c(C(=O)/C=C/c2cc(O)c(O)cc2F)c1 endpoint_label=TGI recorded_result="1.98 µM"
compound=CCOC(=O)CCCn1c(SC)nc2cc(-c3ccco3)[nH]c2c1=O endpoint_label=TGI recorded_result="> 100 µM"
compound=COc1c(C)c2c(c(O)c1C/C=C(\C)CCC(=O)OCCN1CCOCC1)C(=O)OC2 endpoint_label=TGI recorded_result="> 100 µM"
compound=O=c1[nH]c2nccnc2c2c([N+](=O)[O-])cccc12 endpoint_label=TGI recorded_result="> 100 µM"
compound=CC(=O)[CH-]C(=O)c1ccccc1.CC(=O)[CH-]C(=O)c1ccccc1.CC(=O)[CH-]C(=O)c1ccccc1.[Tl+3] endpoint_label=TGI recorded_result="> 100 µM"
compound="C/C=C1\\CN2CCC34c5ccccc5N(C)C35OCC4(C(=O)OC)C1CC25 (stereo not drawn)" endpoint_label=TGI recorded_result="29.1 µM"
compound=O=C(O)C(F)(F)C(F)(F)C(F)(F)C(F)(F)C(=O)O endpoint_label=TGI recorded_result="> 100 µM"
compound="Fc1ccc(C2NC(=S)NC3=C2CCOc2c3ccc3ccccc23)cc1 (stereo not drawn)" endpoint_label=TGI recorded_result="69.1 µM"
compound=c1nc2cscc2c2cscc12 endpoint_label=TGI recorded_result="> 100 µM"
compound=O=C(Nc1ccc(Cl)cc1)c1cccc([N+](=O)[O-])c1O endpoint_label=TGI recorded_result="14.4 µM"
compound=COc1cc(CCNC2=CC(=O)c3cccnc3C2=O)ccc1O endpoint_label=TGI recorded_result="3.58 µM"
compound=S=c1nc(Oc2ccc(Cl)c(Cl)c2)[nH]c(=S)[nH]1 endpoint_label=TGI recorded_result="37.9 µM"

----------
Test system: NCI-H522 lung
Test: NCI tumour cell line growth inhibition, 48 h
endpoint-label: TGI

compound=c1cc2c(cc1C(N1CCNCC1)N1CCNCC1)OCO2 endpoint_label=TGI recorded_result="> 100 µM"
compound=O=C1CCCCCCCCCCC(=O)C2CCOCCOCCOCCC1Cc1cccc(n1)C2 endpoint_label=TGI recorded_result="> 100 µM"
compound=CC(/C=N/N(C)C1=NCCCCN1)=N/N(C)C1=NCCCCN1 endpoint_label=TGI recorded_result="> 100 µM"
compound=Cc1ccc(S(=O)(=O)Nc2nc3ccccc3c(=O)n2C2CCCCC2)cc1 endpoint_label=TGI recorded_result="> 100 µM"
compound="COc1ccc(C2S/C(=C\\c3cc(OC)c(OC)c(OC)c3)C(=O)N2NC(=O)Cc2ccccc2)cc1 (stereo unspecified)" endpoint_label=TGI recorded_result="> 100 µM"
compound="O=C(O)CS(=O)c1ccc2c3c(cccc13)C(=O)c1ccccc1-2 (stereo unspecified)" endpoint_label=TGI recorded_result="> 100 µM"
compound="Cc1ccc(S(=O)(=O)N(CC(O)c2ccccc2)c2ccccc2F)cc1 (stereo unspecified)" endpoint_label=TGI recorded_result="32 µM"
compound=CC(=O)[CH-]C(=O)c1ccccc1.CC(=O)[CH-]C(=O)c1ccccc1.CC(=O)[CH-]C(=O)c1ccccc1.[Tl+3] endpoint_label=TGI recorded_result="> 100 µM"
compound=O=C(/C=C/C=C/c1ccccc1)CCc1ccccc1 endpoint_label=TGI recorded_result="> 100 µM"
compound=C=CCn1c(-c2ccccc2)cs/c1=N\C(P(=O)(O)O)P(=O)(O)O endpoint_label=TGI recorded_result="> 100 µM"
compound="O=C(CCCC1Cc2ccccc2C1=O)c1ccccc1 (stereo unspecified)" endpoint_label=TGI recorded_result="> 100 µM"
compound="C=C1C(=O)O[C@@H]2C1C[C@@H](O)/C(C)=C/C/C=C(\\C)CCC[C@H](C)[C@H]2OC(C)=O (stereo partly specified)" endpoint_label=TGI recorded_result="79.9 µM"
compound=FC(F)(F)c1cccc(COCCN2CCN(Cc3cccc(C(F)(F)F)c3)CC2)c1 endpoint_label=TGI recorded_result="26.5 µM"
compound=CCOC(=O)CCCn1c(SC)nc2cc(-c3ccco3)[nH]c2c1=O endpoint_label=TGI recorded_result="> 100 µM"
compound=NCCCN(CCCN)CCCNCc1c2ccccc2c(CNCCCN(CCCN)CCCN)c2ccccc12 endpoint_label=TGI recorded_result="26.1 µM"
compound=Cc1ccc2ccc(=O)oc2c1 endpoint_label=TGI recorded_result="> 100 µM"
compound="N#Cc1ccccc1NC(=O)/C(=N\\NC(=O)c1ccncc1)C(c1cnc2ccc([N+](=O)[O-])cc2n1)[N+](=O)[O-] (stereo unspecified)" endpoint_label=TGI recorded_result="> 100 µM"
compound=S=c1[nH]c(=S)c2sc(=S)n(-c3ccccc3)c2[nH]1 endpoint_label=TGI recorded_result="> 100 µM"
compound=N#Cc1ccc(OC(=O)c2ccc(N=C(N)N)cc2)cc1 endpoint_label=TGI recorded_result="> 100 µM"
compound=CCCCCCCCCNCCCCCCCCC endpoint_label=TGI recorded_result="3.08 µM"
compound=COc1c(C)c2c(c(O)c1C/C=C(\C)CCC(=O)OCCN1CCOCC1)C(=O)OC2 endpoint_label=TGI recorded_result="> 100 µM"

----------
System: KM12 colon
Test: NCI tumour cell line growth inhibition, 48 h
endpoint-label: TGI (µM)

compound=CCOC(=O)/C(=C\c1ccc(OCc2ccccc2)c(OC)c1)C(=O)c1ccccc1 value_prefix== recorded_result=41.2
compound="C[C@]12CC[C@H](O)CC1=CC[C@@H]1C2CC[C@]2(C)c3nn(-c4ccc(F)cc4)nc3CC12 (stereo not given in full)" value_prefix=> recorded_result=100
compound=Cc1cccc(C)c1NC(=O)/C(Cl)=C(/Cl)C(=O)O value_prefix== recorded_result=23
compound=CC(C)=CCC/C(=C\CC/C(=C\CCc1ccoc1)C(=O)O)C(=O)O value_prefix=> recorded_result=100
compound="N#CC(c1nc2ccccc2s1)c1nc(Cl)ncc1Br (stereo not given)" value_prefix=> recorded_result=100

----------
Tested on: A549 NSCLC
Test: NCI tumour cell line growth inhibition, 48 h; in the data active means GI50 below about 0.43 µM; inactive means the rest
Outcome codes: active, inactive

molecule="CCN1C(=O)N(CC)C2C1NN=c1s/c(=C3\\C(=O)N(CC(C)C)c4ccccc43)c(=O)n12 (centres undefined)" assigned_class=inactive
molecule=O=C(Nc1ccc(-n2cc(-c3ccncc3)c(-c3ccc(O)c(Cl)c3)n2)cc1)c1cc(Cl)cc(Cl)c1 assigned_class=inactive
molecule=CCOC(=O)Cc1csc(/N=C2\NC(=O)/C(=C3\C(=O)N(C)c4ccccc43)S2)n1 assigned_class=inactive
molecule=COc1cc(C(=O)O[C@H](C(=O)NCCNC(=O)[C@@H](OC(=O)c2cc(OC)cc3c(C)cccc23)[C@]2(C)CO2)[C@]2(C)CO2)c2cccc(C)c2c1 assigned_class=active
